Test system: ZEAMX (Corn, Field)
Test: Postemergence herbicidal evaluation
Type: in vivo, Zea mays
Settings: Rate 0.0315 kg/ha
Procedure: In the tests, seedling plants are grown in jiffy flats for about two weeks. The test compounds are dispersed in 50/50 acetone/water mixtures containing 0.5% TWEEN®20, a polyoxyethylene sorbitan monolaurate surfactant of Atlas Chemical Industries, in sufficient quantities to provide the equivalent of about 0.0156 kg to 0.500 kg per hectare of active compound when applied to the plants through a spray nozzle operating at 40 psi for a predetermined time. […]
Parameter Postemergence herbicidal rating ZEAMX: see the listing below.
reported.property: Postemergence herbicidal rating ZEAMX

compound="Cn1c(C(F)(F)F)cc(=O)n(-c2cc(N=C3SCC(=O)N3[C@@H](Cc3ccccc3)C(=O)O)c(Cl)cc2F)c1=O [Compound 53]" reported=7.5
compound="C#CCOC(=O)CC1SC(=Nc2cc(-n3c(=O)cc(C(F)(F)F)n(C)c3=O)c(F)cc2Cl)N(CC(=O)OCC)C1=O (stereo not shown) [Compound 59]" reported=8.0
compound="CCOC(=O)CN1CCSC1=Nc1cc(-n2nc(C)n(C(F)F)c2=O)c(F)cc1Cl [Compound 36]" reported=6.0
compound="Cn1c(C(F)(F)F)cc(=O)n(-c2cc(N=C3SCC(=O)N3CCC(=O)O)c(Cl)cc2F)c1=O [Compound 31]" reported=7.5
